Entries and their growth inhibition
# Assay name: NCI Yeast Anticancer Drug Screen. Data for the cln2 rad14 strain (AID 165);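 further: 0% = growth equal to vehicle treated cultures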
# Study conditions: S. cerevisiae cln2 rad14 strain, at 50.0 µM (retest, dose inferred, filed as 5.0), hits give high values
This is part of a sample that, as a whole, favours compounds with a hit. Of some 79,000 tested, about 15% had one in any assay.

>  <Compound>
CCCCN=C(c1ccc(O)cc1)c1ccc(OC)cc1O

>  <growth inhibition / %>
20

$$$$
>  <Compound>
CC(=O)C1CCC2C3CC(F)C4(O)CC(O)CCC4(C)C3CCC12C (stereo not given)

>  <growth inhibition / %>
58

$$$$
>  <Compound>
Cc1cc(C)c(Cc2cc(C(C)(C)C)cc(C)c2O)cc1Cc1cc(C(C)(C)C)cc(C)c1O

>  <growth inhibition / %>
19

$$$$
>  <Compound>
CCOP(=O)(OCC)C(=C1C=C(C(C)(C)C)C(=O)C(C(C)(C)C)=C1)P(=O)(OCC)OCC

>  <growth inhibition / %>
99

$$$$
>  <Compound>
O=[N+]([O-])c1ccc(S(=O)/N=C/c2ccccc2)c([N+](=O)[O-])c1 (stereo not given)

>  <growth inhibition / %>
82

$$$$

###

# Assay name: NCI Yeast Anticancer Drug Screen. Data for the bub3 strain (AID 167)
# Study conditions: S. cerevisiae bub3 mutant strain, at 50.0 µM (retest, dose inferred, filed as 5.0), hits give high values
About 79,000 compounds went through this panel and 15% of them were active in at least one assay; those are over-represented in the sample as a whole.
Think of 30% as a floor: if growth inhibition stands on it or above, it is yes; beneath it, no.

>  <Compound>
COc1cc2c(cc1OC)c1c(OC)c(OC)cc3c1c1c2sc(=S)n1CC3

>  <Classification>
yes

$$$$
>  <Compound>
c1ccc(Oc2ccc(Nc3c4ccccc4nc4ccccc34)cc2)cc1

>  <Classification>
yes

$$$$
>  <Compound>
CC1=C(C)CC2C(=O)C(C(O)CC(C)C)=CC(=O)C2C1 (stereo not drawn)

>  <Classification>
yes

$$$$
>  <Compound>
C=CS(=O)(=O)c1ccc2ccccc2c1

>  <Classification>
yes

$$$$
>  <Compound>
BrCc1ccccc1C[P+](c1ccccc1)(c1ccccc1)c1ccccc1

>  <Classification>
yes

$$$$
>  <Compound>
CN(C)CCNc1ccc2nnn3c4ccc(O)cc4c(=O)c1c23

>  <Classification>
yes

$$$$
>  <Compound>
CC(=O)Oc1ccc(N2C(=O)C=CC2=O)cc1

>  <Classification>
yes

$$$$
>  <Compound>
OCC(O)C(O)C(O)C(O)c1cnn(-c2ccccc2)n1 (stereo not drawn)

>  <Classification>
no

$$$$
>  <Compound>
CCCCN(CCCC)/N=C\C1=C2NC(=O)/C(C)=C\C=C/C(OC)C(OC(N)=O)/C(C)=C/C(C)C(O)C(OC)CC(C)CC(=C(OC)C1=O)C2=O (stereo not drawn)

>  <Classification>
yes

$$$$
>  <Compound>
C/C(=N\NC(=O)N/N=C(\C)c1ccccn1)c1ccccn1

>  <Classification>
no

$$$$
>  <Compound>
O=C(C[N+]12CN3CN(CN(C3)C1)C2)c1ccc(Cl)cc1Cl

>  <Classification>
no

$$$$
>  <Compound>
[Cu+2].[NH-]c1ccccc1O.[NH-]c1ccccc1[OH2+]

>  <Classification>
yes

$$$$
>  <Compound>
CCCCCN(CCCCC)CC(C)(C)C(O)c1ccc(OC)c2ccccc12 (stereo not drawn)

>  <Classification>
yes

$$$$
>  <Compound>
Cc1c(Cl)ccc2c(C(O)CNCc3ccccc3)cc(-c3ccc(Cl)cc3)nc12 (stereo not drawn)

>  <Classification>
yes

$$$$
>  <Compound>
C=CCNC(=O)c1ccccc1C(=O)O

>  <Classification>
no

$$$$
>  <Compound>
CCCCCCCCCCCCNC(=O)NCC(OCC)OCC

>  <Classification>
yes

$$$$
>  <Compound>
CC(C)(C)OC(=O)CSC#N

>  <Classification>
yes

$$$$
>  <Compound>
N#Cc1c(-c2ccc(Cl)cc2)c(-c2ccc(Cl)cc2)nn(CCOC(=O)CN)c1=O

>  <Classification>
yes

$$$$
>  <Compound>
COc1cccc2c1S(=O)(=O)C(c1ccccc1)=CC2=O

>  <Classification>
yes

$$$$
>  <Compound>
O=C1NC(=S)S/C1=C/c1ccc(/C=C2/SC(=S)NC2=O)cc1

>  <Classification>
no

$$$$
>  <Compound>
Cn1c(=O)nc2n(-c3ccc(Cl)cc3)c3cc(Cl)ccc3nc-2c1=O

>  <Classification>
no

$$$$
>  <Compound>
Cc1ccc(C2COc3cc(O)c(O)cc3C2)cc1 (stereo not drawn)

>  <Classification>
yes

$$$$
>  <Compound>
c1nc(N2CCOCC2)c2[nH]cnc2n1

>  <Classification>
no

$$$$

###

# Assay name: NCI Yeast Anticancer Drug Screen. Data for the sgs1 mgt1 strain (AID 161);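 further: 0% = growth of cultures given vehicle only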
# Study conditions: S. cerevisiae sgs1 mgt1 strain, at 50.0 µM, hits give high values
Compounds without any hit were thinned out: in the full panel of roughly 79,000, 15% have a hit.
Measurement kind: growth inhibition (%)

>  <Compound>
CCNCC(O)COc1ccc2c(c1)[n+]([O-])nc(N)[n+]2[O-] (configuration not stated)

>  <Unit text>
%

>  <Meas value>
62.8

$$$$
>  <Compound>
O=S(=O)(N/N=C/c1ccc(Cl)cc1Cl)c1ccccc1

>  <Unit text>
%

>  <Meas value>
-12.4

$$$$
>  <Compound>
CC(Br)C(=O)c1ccc(OCc2ccccc2)cc1 (configuration not stated)

>  <Unit text>
%

>  <Meas value>
89.9

$$$$
>  <Compound>
O=C1O/C(=C\c2ccccc2)c2ccccc21

>  <Unit text>
%

>  <Meas value>
47.6

$$$$
>  <Compound>
COC(=O)/C=N/O

>  <Unit text>
%

>  <Meas value>
8.85

$$$$
>  <Compound>
CC(=O)CC1CCC(=O)/C=C/C(=O)OC(CC(C)=O)CCC(=O)/C=C/C(=O)O1 (configuration not stated)

>  <Unit text>
%

>  <Meas value>
-6.3

$$$$
>  <Compound>
Oc1c(Cl)cccc1-c1ccccc1

>  <Unit text>
%

>  <Meas value>
36.9

$$$$
>  <Compound>
O=C(COC(=O)c1ccc(O)cc1)c1ccc(-c2ccccc2)cc1

>  <Unit text>
%

>  <Meas value>
19.9

$$$$
>  <Compound>
CN(C)C(=S)/N=c1\ss/c(=N\C(=S)N(C)C)n1-c1cccc(Cl)c1

>  <Unit text>
%

>  <Meas value>
94

$$$$
>  <Compound>
COc1ccc(/C(O)=C/c2nc3ccc([N+](=O)[O-])cc3[nH]c2=O)cc1

>  <Unit text>
%

>  <Meas value>
92.6

$$$$
>  <Compound>
Cc1ccc(-c2c(N)[n+]([O-])c3ccccc3[n+]2[O-])cc1

>  <Unit text>
%

>  <Meas value>
99.2

$$$$
>  <Compound>
O=[N+]([O-])/C=C/c1cc2c(ccc3ccccc32)[nH]1

>  <Unit text>
%

>  <Meas value>
94.5

$$$$

###

# Assay name: NCI Yeast Anticancer Drug Screen. Data for the mec2-1 strain (AID 157)
# Study conditions: S. cerevisiae mec2-1 strain, at 5.0 µM (retest, dose inferred, filed as 0.5)
The panel holds about 79,000 compounds, 15% with a hit somewhere; the sample as a whole holds those more often. Calls of active or inactive are those of the source. Rule as the data show it: active = growth inhibition above about 70%; inactive = the rest.
Outcomes: true (active), false (inactive)

>  <Compound>
Cc1nc(-c2cccc(Cl)c2)oc1-c1ccccc1

>  <Classification>
false

$$$$
>  <Compound>
O=c1cccccc1O.O=c1cccccc1O.O=c1cccccc1O.[Ru]

>  <Classification>
false

$$$$
>  <Compound>
O=C(/C=C(/Nc1ccccc1)C(=O)c1ccccc1)c1ccccc1

>  <Classification>
false

$$$$
>  <Compound>
Cc1[nH]nc(C(=O)N(C)C)c1N=NN(C)C

>  <Classification>
false

$$$$
>  <Compound>
Cc1ccc(O)c(-c2cscn2)c1

>  <Classification>
false

$$$$
>  <Compound>
CCc1ccc(/C=C/c2ccc([N+](=O)[O-])cc2)nc1

>  <Classification>
false

$$$$
>  <Compound>
O=[N+]([O-])c1cc2ccc(O)cc2c2ccccc12

>  <Classification>
false

$$$$
>  <Compound>
O=C(c1ccc(Cl)cc1)c1ccc(OCCCOc2ccc(C(=O)c3ccc(Cl)cc3)cc2)cc1

>  <Classification>
false

$$$$
>  <Compound>
COc1ccc(/C=C/c2ccnc3ccccc23)cc1

>  <Classification>
false

$$$$
>  <Compound>
CCCCCOC(=O)C1C(=O)CC(c2ccccc2)C1c1ccccc1 (centres undefined)

>  <Classification>
false

$$$$
>  <Compound>
COC(=O)C1=C(C)NC(c2ccc(OC)cc2OC)C(C(=O)OC)=C1C (centres undefined)

>  <Classification>
false

$$$$
>  <Compound>
CN(C)CCCC1(c2ccccc2)SC(C)(C)c2ccc(Cl)cc21 (centres undefined)

>  <Classification>
false

$$$$
>  <Compound>
Clc1ccccc1C(Cc1c(Cl)cccc1Cl)Cn1ccnc1 (centres undefined)

>  <Classification>
false

$$$$
>  <Compound>
CCOC(=O)C1CSC(c2c(CO)cnc(C)c2O)N1 (centres undefined)

>  <Classification>
false

$$$$
>  <Compound>
CCCCCCCCCCCC(=O)NN

>  <Classification>
false

$$$$
>  <Compound>
N#C/C(=C1/C(=O)c2ccccc2-c2ccccc21)c1ccccc1

>  <Classification>
true

$$$$
>  <Compound>
CN(C(=O)c1cccs1)C(=S)N1CCN(c2ccccc2)CC1

>  <Classification>
false

$$$$
>  <Compound>
c1cc[c]([Sn]([CH]2c3ccccc3-c3ccccc32)([CH]2c3ccccc3-c3ccccc32)[CH]2c3ccccc3-c3ccccc32)cc1

>  <Classification>
false

$$$$
>  <Compound>
O=[N+]([O-])c1ccccc1N=Nc1c(O)[nH]c2cccc(C(F)(F)F)c12

>  <Classification>
false

$$$$
>  <Compound>
ClCc1nc2ccccc2c2ccccc12

>  <Classification>
false

$$$$
>  <Compound>
CC(=O)OC1=CC2=CCC3C(CCC4(C)C(C(C)=O)CCC34)C2(C)CC1 (centres undefined)

>  <Classification>
false

$$$$
>  <Compound>
CC(O[Si](c1ccccc1)(c1ccccc1)C(C)(C)C)[C@H](NC(=O)OC(C)(C)C)C(=O)O[Si](c1ccccc1)(c1ccccc1)C(C)(C)C (some centres undefined)

>  <Classification>
true

$$$$
>  <Compound>
C/C(=N/Nc1ccc([N+](=O)[O-])cc1[N+](=O)[O-])C(=O)O

>  <Classification>
false

$$$$
>  <Compound>
Cc1ccc(C2COc3cc(O)c(O)cc3C2)cc1 (centres undefined)

>  <Classification>
false

$$$$
>  <Compound>
O=c1c2ccccc2[nH]c2c1[nH]c1ccccc12

>  <Classification>
false

$$$$
>  <Compound>
Cc1ccc(CC2(C(=O)O)Cc3ccc(C)cc3C2)cc1 (centres undefined)

>  <Classification>
false

$$$$
>  <Compound>
OC(c1ccccc1)(c1ccccc1)c1ccc[cH-]1.OC(c1ccccc1)(c1ccccc1)c1ccc[cH-]1.[Fe+2]

>  <Classification>
false

$$$$
>  <Compound>
Nc1ncnc2c1c(-c1ccccc1)cn2-c1ccccc1

>  <Classification>
false

$$$$
>  <Compound>
CCCC(=O)Oc1ccc([N+](=O)[O-])cc1

>  <Classification>
false

$$$$
>  <Compound>
FC(F)(F)c1[nH]nc(-c2ccc(Cl)cc2)c1N=NN1CCOCC1

>  <Classification>
true

$$$$
>  <Compound>
COC(=O)C(=O)/C=C(/O)c1ccc(OC)cc1

>  <Classification>
false

$$$$
>  <Compound>
OC1(c2ccccc2)CCC2CCCCC2C1 (centres undefined)

>  <Classification>
false

$$$$
>  <Compound>
CCOC(=O)c1c(Cl)nnc(-c2ccccc2)c1-c1ccccc1

>  <Classification>
false

$$$$
>  <Compound>
O=C1NC(=Nc2ccccc2)C(=Nc2ccccc2)N1c1ccccc1

>  <Classification>
false

$$$$
>  <Compound>
COc1ccc2nc3c([N+](=O)[O-])ccc(NCCCN(C)C)c3c(N)c2c1

>  <Classification>
false

$$$$
>  <Compound>
COC(=O)c1cccc2c3ccccc3c3ccccc3c12

>  <Classification>
false

$$$$
>  <Compound>
Cc1ccc(S(=O)(=O)OCCc2ccc(Cl)cc2)cc1

>  <Classification>
false

$$$$
>  <Compound>
CN(C)CCCC(C#N)(CCCN(C)C)c1ccccc1

>  <Classification>
false

$$$$
>  <Compound>
CCN(CC)CCCC(C)Nc1c2ccccc2nc2c(C)cc(Br)cc12 (centres undefined)

>  <Classification>
false

$$$$
>  <Compound>
Cc1ccnc(NS(=O)(=O)c2ccc(N=Cc3c4ccccc4nc4cc(Cl)ccc34)cc2)n1

>  <Classification>
false

$$$$
>  <Compound>
CCCCCCCCCCCCCCSC(=N)N

>  <Classification>
false

$$$$
>  <Compound>
COC12C(COC(N)=O)C3=C(C(=O)C(C)=C(N)C3=O)N1CC1C2N1C(=O)/C=C/c1ccccc1 (centres undefined)

>  <Classification>
false

$$$$
>  <Compound>
C1=Nc2ccccc2C=Nc2ccccc2C=Nc2ccccc2C=Nc2ccccc21.[Cl-].[Pt+2]

>  <Classification>
true

$$$$
>  <Compound>
CC1CCC2(OC1)OC1CC3C4CCC5CC(OC6OC(COC7OC(CO)C(O)C(O)C7O)C(OC7OC(C)C(O)C(O)C7O)C(O)C6OC6OC(CO)C(O)C(O)C6O)CCC5(C)C4CCC3(C)C1C2C (centres undefined)

>  <Classification>
false

$$$$
